Provenance of the data: PubChem BioAssay AID686978

# assay notes: qHTS for Inhibitors of human tyrosyl-DNA phosphodiesterase 1 (TDP1): qHTS in cells in absence of CPT; also: nearly all actives have a fitted effect of over 55% in size; also: potency is read from the fitted curve at half-maximal effect
# run parameters: DT40 Tdp1-/- hTDP1 cells, no CPT, ATP luminescence, 48 h
Screen size: about 420,000 compounds; about 64,000 (15%) were called active. Inconclusive results (about 27%) are left out. Not all results are given here.
measured quantity: Potency

compound	obs value
CCOC(=O)C1CCCN(C(=O)CSc2nnc3nc(C)cc(C)n23)C1 (stereo not drawn)	20.6 µM (active)
CCOc1ccc(CC(=O)Nc2ccc(S(=O)(=O)Nc3cc(C)on3)cc2)cc1OCC	inactive
Cc1ccc(S(=O)(=O)N2CCN(C(=O)c3cc(S(=O)(=O)N4CCOCC4)ccc3F)CC2)cc1	inactive
CCN(CC)C(=O)CS(=O)CC(=O)Nc1cc(OCCOC)c(Cl)cc1Cl (stereo not drawn)	inactive
COc1ccc(C(=O)OCC(=O)c2ccc(C)c(S(=O)(=O)N3CCOCC3)c2)cc1OC	11.6 µM (active)
O=C(c1cccs1)c1cn(CCOc2ccc(Cl)cc2)c2ccccc12	7.31 µM (active)
Cc1ccc(NC(=O)OCc2cncs2)cc1	inactive
CCc1ccc(N2C(=O)CN(S(=O)(=O)CC)CC2(C)C(=O)NC2CCCCC2)cc1 (stereo not drawn)	inactive
CCOc1ccc(CCNC(=O)COC(=O)CCS(=O)(=O)c2ccc(C)cc2)cc1OCC	inactive
S=C(NCCC1=CCCCC1)Nc1ccccc1	23.1 µM (active)
COCOc1cc(O)c(C(=O)/C=C/c2ccc(OCOC)c(OCOC)c2)c(OCOC)c1	23.1 µM (active)
Cc1sc2c(c1C)c(=O)n(-c1ccccc1)c1nncn21	inactive
CN1CCCCCC1C(=O)NCCN1Cc2ccccc2OC(c2ccsc2)C1 (stereo not drawn)	inactive
COc1ccc(N2CCN(CCNC(=O)CCN3C(=O)COc4ccccc43)CC2)cc1	inactive
c1ccc(CCC2=NCCn3cccc32)cc1	inactive
CCCC(=O)NC(C)C(c1cccs1)N1CCN(c2ccccc2)CC1 (stereo not drawn)	inactive
CC(C)S(=O)(=O)c1csc(NC(=O)Nc2ccc(Cl)cc2)c1Cl	16.4 µM (active)
CC(NC(=O)Nc1ccccc1)C(c1cccs1)N1CCN(c2ccccc2)CC1 (stereo not drawn)	23.1 µM (active)

---

# assay notes: qHTS for Inhibitors of human tyrosyl-DNA phosphodiesterase 1 (TDP1): qHTS in cells in absence of CPT; also: nearly all actives have a fitted effect of over 55% in size; also: potency is read from the fitted curve at half-maximal effect
# run parameters: DT40 Tdp1-/- hTDP1 cells, no CPT, ATP luminescence, 48 h
Among all 420,000 compounds or so, about 64,000 (15%) were called active. About 27% were inconclusive and are not listed. Only a sample is shown.

molecule	Potency
COc1ccccc1C(=O)c1ccccc1C(=O)c1ccccc1	18.4 µM (active)
Cc1cc(C)c(/C=C2\C(=O)Nc3ccccc32)[nH]1	inactive
CC(Nc1ccc([N+](=O)[O-])cc1[N+](=O)[O-])c1ccccc1 (stereo not drawn)	20.6 µM (active)
COC(=O)c1c(NC(=O)c2ccc(Cl)c(Cl)c2)sc2c1CCCC2	inactive
Cc1nnc(C)n1/N=C/c1ccc(C(C)C)cc1	inactive
CN1CCN(CCNC(=O)Nc2ccccc2[N+](=O)[O-])CC1	inactive
Cc1ccc(OCC(=O)OCc2cc(=O)n3nc(C4CC4)sc3n2)cc1	inactive
CCN(CC)c1ccc(/C=N/NC(=O)CNC(=O)c2cccnc2)cc1	inactive

---

# assay notes: qHTS for Inhibitors of human tyrosyl-DNA phosphodiesterase 1 (TDP1): qHTS in cells in absence of CPT; also: nearly all actives have a fitted effect of over 55% in size
# run parameters: DT40 Tdp1-/- hTDP1 cells, no CPT, ATP luminescence, 48 h
The whole screen tested about 420,000 compounds, of which about 64,000 (15%) were called active. Not shown: some 27% with an inconclusive outcome. The call rests on the fitted dose curve; in most records, active means well fitted inhibition curve with a large enough effect; inconclusive means small, poorly fitted or top-dose-only effect; inactive means flat fitted curve, though single readings scatter. The list is a sample of the results.
Outcome codes: label 1 = active, label 0 = inactive

molecule	class
Fc1cccc(-n2ncc3c2ncn2nc(-c4ccccc4Cl)nc32)c1	label 0
CC(=O)N1CCN(C(=O)c2cccc(S(=O)(=O)Nc3ccc(C)cc3)c2)CC1	label 0
Cc1cccc(OCCC(=O)OCc2csc(CC(=O)Nc3ccccc3C)n2)c1	label 0
COc1ccccc1N1CCN(C(=O)c2ccc(NC3=NC4CS(=O)(=O)CC4S3)cc2)CC1 (configuration not stated)	label 0
COc1ccc(NC(=O)c2cnc(Nc3ccc(C)c(Cl)c3)c3ccccc23)cc1OC	label 0
COc1ccc(S(=O)(=O)NC(=O)C2(C)CCN2C(=O)COc2ccc(Cl)cc2)cc1 (configuration not stated)	label 0
COc1ccc(CCNC(=O)c2cc(-c3ccc4c(c3)OCO4)on2)cc1OC	label 0
COc1cc(/C=C/C(=O)O)cc(S(=O)(=O)Nc2ccccc2SC)c1OC	label 0
CC(C(=O)NC1CCCC1)N(c1ccc(Oc2ccccc2)cc1)S(C)(=O)=O (configuration not stated)	label 0
CC(C)C(=O)NC(=S)Nc1ccccc1F	label 0
Cc1ccc(F)cc1S(=O)(=O)Nc1cccc(C(=O)N2CCCC(C(N)=O)C2)c1 (configuration not stated)	label 0
CCOC(=O)N1CCN(C(=O)c2ccc(S(=O)(=O)Nc3cccc(C(F)(F)F)c3)cc2)CC1	label 1

---

# assay notes: qHTS for Inhibitors of human tyrosyl-DNA phosphodiesterase 1 (TDP1): qHTS in cells in absence of CPT; also: nearly all actives have a fitted effect of over 55% in size; also: potency is read from the fitted curve at half-maximal effect
# run parameters: DT40 Tdp1-/- hTDP1 cells, no CPT, ATP luminescence, 48 h
Among all 420,000 compounds or so, about 64,000 (15%) were called active. About 27% were inconclusive and are not listed. A selection follows.

compound	Potency
COc1ccc(OC)c(-c2c(=O)n(OCc3ccccc3Br)c3ccccc3[n+]2[O-])c1	23.1 µM (active)
CCc1ccc(C(=O)NC(=S)Nc2ccccc2N2CCOCC2)cc1	inactive
O=C(CN1CCCCC1)Nc1ccccc1Cl	inactive
CCCC1CC(C)(C(=O)Cn2[nH]c(=O)ccc2=O)OC1=O (stereo not given)	inactive
CC1CCC2(CC1)NC(=O)N(CC(=O)NCc1ccco1)C2=O (stereo not given)	inactive

---

# assay notes: qHTS for Inhibitors of human tyrosyl-DNA phosphodiesterase 1 (TDP1): qHTS in cells in absence of CPT; also: nearly all actives have a fitted effect of over 55% in size
# run parameters: DT40 Tdp1-/- hTDP1 cells, no CPT, ATP luminescence, 48 h
Hit rate of the full screen: of about 420,000 compounds, about 64,000 (15%) were called active. Roughly 27% stayed inconclusive and do not appear here. Calls come from the whole dose curve; as a rule, active = well fitted inhibition curve with a large enough effect; inconclusive = small, poorly fitted or top-dose-only effect; inactive = flat fitted curve, though single readings scatter. A selection follows.
Outcome codes: Y = active, N = inactive

compound	class
O=[N+]([O-])c1ccc(C=Nc2ccc(Cl)cc2Cl)s1	Y
Cc1csc(CN(C)C(=O)CC2C(=O)NCCN2CC(C)(C)C)n1 (stereo not drawn)	N
CSc1ncccc1C(=O)Nc1cccc(S(=O)(=O)N2CCOCC2)c1	N
O=C(COc1ccccc1F)Nc1ccc(C(=O)OCc2cc(=O)n3nc(C4CC4)sc3n2)cc1	N
Cc1[nH]c2ccccc2c1SCC(=O)Nc1nccs1	N
CCCCNC(=O)c1c[nH]c2ccc(S(=O)(=O)Nc3ccc(OCC)cc3)cc2c1=O	N
Cc1ccc(-c2nnc3c4ccccc4c(C)nn23)cc1NC(=O)c1cccc(Br)c1	N
Cc1ccc2c(C)c(C(=O)N(C)Cc3ccncn3)oc2c1C	N
Cc1nnc(-c2ccc(Oc3ccc(C)c(C)c3)c([N+](=O)[O-])c2)o1	Y
COc1ccc(-c2nc3cc([N+](=O)[O-])ccc3o2)cc1OC	N
COC(=O)C(C)n1cnc2c(nnn2-c2ccc(F)cc2)c1=O (stereo not drawn)	N
COc1ccc(/C=C(\C#N)C(=O)ONC2=NCCCCC2)cc1	Y
O=NN(CCCl)C(=O)NCCc1cccc[n+]1[O-]	N
COC(=O)C1=NN(c2ccccc2)C2C(=O)N(c3ccccc3OC)C(=O)C12 (stereo not drawn)	N
COc1ccc(C)cc1N(C)C(=O)c1c(C)oc2ncnc(N3CCOCC3)c12	N
O=C(O)c1ccc(-n2cccc2)cc1O	N
O=C(CC1CCCCC1)NCc1ccco1	N
COCCNc1ncnc2c1ncn2[C@H]1CN(CCN2CCOCC2)C[C@@H](CO)O1	N
CCOC(=O)c1oc2c(CN3CCN(C)CC3)c(O)ccc2c(=O)c1-c1ccc(Br)cc1	N
O=C(O)c1ccc(-n2nc(-c3ccccc3)c3ccccc3c2=O)cc1	N
COc1ccc(/C=C(\C#N)C(=O)OCC(=O)N(C)C2CCS(=O)(=O)C2)cc1 (stereo not drawn)	N
CCOc1ccc(-c2cc3nc(C4CCN(C(=O)OC(C)(C)C)CC4)c(C(=O)Nc4ccc(C(=O)OC)cc4)cn3n2)cc1	N
Cc1oc2ncnc(N3CCCCC3)c2c1C(=O)N1CCN(c2cccc(Cl)c2)CC1	Y
NC(=O)c1ccc(N2CCOCC2)nc1	N
COc1ccc(OCC(=O)NCCc2ccc(S(N)(=O)=O)cc2)cc1	N
CN1C(=O)/C(=C/c2ccc(C(=O)NC3CCCC3)cc2)Oc2ccccc21	Y
C=C(Br)Cn1c(CCCC)nc2ccccc21	Y
CC1CCC(NC(=O)CNC(=O)c2ccc3ccccc3c2)CC1 (stereo not drawn)	N
